Measured values drawn from paper PMC10663500 for this set.

target: T1, mouse programmed cell death protein 1 Fc fusion protein (mPD-1-Fc), mPD-1 C60S (aa 25-167) (Mus musculus, UniProt Q02242, stabilised); assay: SPR; Carterra LSA; Fab from the ammonium sulfate precipitate of the culture supernatant immobilised on a NiHC200M chip; hPD-1 (1-1024 nM) or mPD-1-Fc (4-1024 nM) as analyte, fourfold dilution series, no regeneration; HBS-EP pH 7.4, 25 °C; medians over the spots of a construct, KD = koff/kon; conditions: one partner purified
T1 construct: not cleaved; source: Expi293F, purified (Protein A, SEC; dimeric fraction); not shown: Fc (human), C-terminal, kept
What koff was measured for each of the following?
Numbers only, in s⁻¹.

toripalimab Fab L.L101Y (Fab, V domains shown, as the heavy chain of Sm3; light chain of Sm3 with this change; numbers count from the chain's first residue; source: Brevibacillus, culture supernatant (ammonium sulfate precipitate); not shown: 6xHis, C-terminal, kept; 6xHN, C-terminal, kept) VH: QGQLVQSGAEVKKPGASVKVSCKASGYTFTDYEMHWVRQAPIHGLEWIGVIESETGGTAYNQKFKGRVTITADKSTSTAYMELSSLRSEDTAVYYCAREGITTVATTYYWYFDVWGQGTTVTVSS VL: DVVMTQSPLSLPVTLGQPASISCRSSQSIVHSNGNTYLEWYLQKPGQSPQLLIYKVSNRFSGVPDRFSGSGSGTDFTLKISRVEAEDVGVYYCFQGSHVPYTFGQGTKLEIK ... 0.00356

API: the following record is the query input.
Query: Given the binder toripalimab Fab L.T102Y (Fab, V domains shown, as the heavy chain of Sm3; light chain of Sm3 with this change; numbers count from the chain's first residue; source: Brevibacillus, culture supernatant (ammonium sulfate precipitate); not shown: 6xHis, C-terminal, kept; 6xHN, C-terminal, kept) VH: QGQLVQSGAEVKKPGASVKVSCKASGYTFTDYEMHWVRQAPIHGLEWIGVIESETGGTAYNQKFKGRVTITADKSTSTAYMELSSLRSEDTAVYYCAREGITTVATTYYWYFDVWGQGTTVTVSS VL: DVVMTQSPLSLPVTLGQPASISCRSSQSIVHSNGNTYLEWYLQKPGQSPQLLIYKVSNRFSGVPDRFSGSGSGTDFTLKISRVEAEDVGVYYCFQGSHVPLYFGQGTKLEIK , what is its reported koff?
Response: 0.00282
